Listed next: entries and their corresponding MIC.
System: Mycolicibacterium phlei
assay_text: Antibacterial activity against Mycobacterium phlei
Format: functional

smiles_text	u	sign	MIC
CCCCCCCC/C=C/CCCCCCCCNC(=O)C1=CCN(C)[C@@H]([C@H](O[C@@H]2O[C@H](CN)[C@@H](O)[C@H]2O)[C@H]2O[C@@H](n3ccc(=O)[nH]c3=O)[C@H](O)[C@@H]2O)C(=O)N1C	µg/mL	=	1.56
CCCCCCCCCCCNC(=O)C1=CCN(C)[C@@H]([C@H](O[C@@H]2O[C@H](CN)[C@@H](O)[C@H]2O)[C@H]2O[C@@H](n3ccc(=O)[nH]c3=O)[C@H](O)[C@@H]2O)C(=O)N1C	µg/mL	=	0.39
CCCCCCCCCCCCCCCCNC(=O)C1=CCN(C)[C@@H]([C@H](O[C@@H]2O[C@H](CN)[C@@H](O)[C@H]2O)[C@H]2O[C@@H](n3ccc(=O)[nH]c3=O)[C@H](O)[C@@H]2O)C(=O)N1C	µg/mL	>	100
CCCCOc1ccc(NC(=O)C2=CCN(C)[C@@H]([C@H](O[C@@H]3O[C@H](CN)[C@@H](O)[C@H]3O)[C@H]3O[C@@H](n4ccc(=O)[nH]c4=O)[C@H](O)[C@@H]3O)C(=O)N2C)cc1	µg/mL	>	100
CCCCCCCCCCOC(=O)C1=CCN(C)[C@@H]([C@H](O[C@@H]2O[C@H](CN)[C@@H](O)[C@H]2O)[C@H]2O[C@@H](n3ccc(=O)[nH]c3=O)[C@H](O)[C@@H]2O)C(=O)N1C	µg/mL	>	100
CCCCCCCCCCCCCCCCCCCCCNC(=O)C1=CCN(C)[C@@H]([C@H](O[C@@H]2O[C@H](CN)[C@@H](O)[C@H]2O)[C@H]2O[C@@H](n3ccc(=O)[nH]c3=O)[C@H](O)[C@@H]2O)C(=O)N1C	µg/mL	=	12.5
CCCCCCCCCCCCCCNC(=O)C1=CCN(C)[C@@H]([C@H](O[C@@H]2O[C@H](CN)[C@@H](O)[C@H]2O)[C@H]2O[C@@H](n3ccc(=O)[nH]c3=O)[C@H](O)[C@@H]2O)C(=O)N1C	µg/mL	=	0.78
CN1C(=O)[C@H]([C@H](O[C@@H]2O[C@H](CN)[C@@H](O)[C@H]2O)[C@H]2O[C@@H](n3ccc(=O)[nH]c3=O)[C@H](O)[C@@H]2O)N(C)CC=C1C(=O)NC1CCCCCCCCCCC1	µg/mL	=	6.25
C=CCCCCCCCCCOC(=O)C1=CCN(C)[C@@H]([C@H](O[C@@H]2O[C@H](CN)[C@@H](O)[C@H]2O)[C@H]2O[C@@H](n3ccc(=O)[nH]c3=O)[C@H](O)[C@@H]2O)C(=O)N1C	µg/mL	=	50

====

# MIC per entry
Test system: Enterococcus faecalis
assay_text: Antibacterial activity against Enterococcus faecalis SR7914 (VRE)
Type: functional
observed_property: MIC (µg/mL)

compound	observed_property	reading
CCCCCCCCCCCCCCCC(=O)N[C@@H]1CCN[C@@H]([C@H](O[C@@H]2O[C@H](CN)[C@@H](O)[C@H]2O)[C@H]2O[C@@H](n3ccc(=O)[nH]c3=O)[C@H](O)[C@@H]2O)C1	MIC	2
CCCCCCCCCCCCCCC[C@H](NC(=O)[C@@H](N)CCCNC(=N)N)C(=O)NC[C@@H]1CC2[C@@H](C(=O)N1)[C@H]([C@H]1O[C@@H](n3ccc(=O)[nH]c3=O)[C@H](O)[C@@H]1O)ON2CCCN (single isomer, unassigned)	MIC	32
CCCCCCCCCCCCCCCC(=O)N[C@H]1CCN[C@H]([C@@H](O[C@@H]2O[C@H](CN)[C@@H](O)[C@H]2O)[C@H]2O[C@@H](n3ccc(=O)[nH]c3=O)[C@H](O)[C@@H]2O)C1	MIC	16
CCCCCCCCCCCCCCCCC[C@H]1CN(C)[C@@H]([C@H](O[C@@H]2O[C@H](CN)[C@@H](O)[C@H]2O)[C@H]2O[C@@H](n3ccc(=O)[nH]c3=O)[C@H](O)[C@@H]2O)C(=O)N(C)[C@@H]1C(=O)O	MIC	8
